Each recorded value in this set is attributed to paper PMC4306314.

Tested on: cortical neurons
Experiment: Glutamate-induced toxicity, chromogenic cell viability assay
Assay type: cell-based, rat
Settings: 24 h
Where no end group is shown, it is not given here.
REPORTED PROPERTY: IC50

RRRRRRRRRARSRLAELRGVPRGL [R9-CBD3]
~564 nM
